Experiment Summary: in vitro
Study Conditions: human, liver microsomes
Description: Metabolic stability in human liver microsome assessed as compound remaining after 30 mins
Parameter Measured: remaining at 0.5 h
Answer with the number, then the unit.

Ask: Endpoint output: remaining at 0.5 h of CC(Oc1cc(-c2cnn(CC(=O)NCCCN(C)C)c2)cnc1N)c1c(Cl)ccc(F)c1Cl (racemic) . Value?
Reply: 23.8%

Ask: Endpoint output: remaining at 0.5 h of CC(Oc1cc(-c2cnn(CC3CN(CC(N)=O)C3)c2)cnc1N)c1c(Cl)ccc(F)c1Cl (racemic) . Value?
Reply: 47.8%

Ask: Endpoint output: remaining at 0.5 h of CC(Oc1cc(-c2cnn(C(C)(C)C(=O)NCCN(C)C)c2)cnc1N)c1c(Cl)ccc(F)c1Cl (racemic) . Value?
Reply: 3.6%

Ask: Endpoint output: remaining at 0.5 h of CC(Oc1cc(-c2cnn(C(C)C)c2)cnc1N)c1c(Cl)ccc(F)c1Cl (racemic) . Value?
Reply: 3.2%

Ask: Endpoint output: remaining at 0.5 h of CC(Oc1cc(-c2cnn(CC3CNC3)c2)cnc1N)c1c(Cl)ccc(F)c1Cl (racemic) . Value?
Reply: 71%

Ask: Endpoint output: remaining at 0.5 h of CC(Oc1cc(-c2cnn(CC3(O)CCOCC3)c2)cnc1N)c1c(Cl)ccc(F)c1Cl (racemic) . Value?
Reply: 0.9%

Ask: Endpoint output: remaining at 0.5 h of CC(Oc1cc(-c2cnn(C3CCCNC3)c2)cnc1N)c1c(Cl)ccc(F)c1Cl (racemic) . Value?
Reply: 44.3%

Ask: Endpoint output: remaining at 0.5 h of CC(Oc1cc(-c2cnn(C3CNC3)c2)cnc1N)c1c(Cl)ccc(F)c1Cl (racemic) . Value?
Reply: 44%

Ask: Endpoint output: remaining at 0.5 h of CC(Oc1cc(-c2cnn(C)c2)cnc1N)c1c(Cl)ccc(F)c1Cl (racemic) . Value?
Reply: 5.2%

Value source: ChEMBL document CHEMBL1821723
